tested on: 935938-334-R-J1-PDC complex spheroid viability; experiment: Anticancer human tumor 935938-334-R-J1-PDC patient-derived small intestine adenocarcinoma cell line growth inhibition [POLQ]; conditions: second compound 0.0316 µM; first compound 10 µM; active means viability on the fitted dose curve at most 10% of control; inactive means the rest;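 further: spheroids exposed to drugs for seven days before viability read; 100% = DMSO vehicle control wells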
Hi! Could you answer with just one of these? 1 for active, -1 for inactive

Sample answers from the record:
Nc1ccn(C2OC(CO)C(O)C2(F)F)c(=O)n1 (stereo unspecified) + Cc1cccc(N(C)C(=O)C2C(O)CCN2c2nc(C)cc(C(F)(F)F)c2C#N)c1: -1
CC1COCCN1c1cc(-c2ccnn2C)c2ccnc(-c3ccn[nH]3)c2n1 (stereo unspecified) + Cc1cccc(N(C)C(=O)C2C(O)CCN2c2nc(C)cc(C(F)(F)F)c2C#N)c1: -1
CCc1cc2c(N3CCc4c(cc(Cn5ccnc5)cc4-c4cn(C)nc4C(F)(F)F)C3=O)cc(C)nc2c(OC)n1 + Nc1ccc(C#CCN(C(=O)Cc2ncc(C(F)(F)F)cc2C(F)(F)F)c2ccc(F)cc2)nn1: -1
CC1COCCN1c1cc(C2(S(C)(=N)=O)CC2)nc(-c2ccnc3[nH]ccc23)n1 (stereo unspecified) + Nc1ccc(C#CCN(C(=O)Cc2ncc(C(F)(F)F)cc2C(F)(F)F)c2ccc(F)cc2)nn1: -1
CC(C)n1c(=O)n(C)c2cnc3cc(F)c(-c4ccc(OCCCN5CCCCC5)nc4)cc3c21 + Nc1ccc(C#CCN(C(=O)Cc2ncc(C(F)(F)F)cc2C(F)(F)F)c2ccc(F)cc2)nn1: -1

Request: GET /call?item= CCCS(=O)(=O)Nc1ccc(F)c(C(=O)c2c[nH]c3ncc(-c4ccc(Cl)cc4)cc23)c1F + Nc1ccc(C#CCN(C(=O)Cc2ncc(C(F)(F)F)cc2C(F)(F)F)c2ccc(F)cc2)nn1 returns the recorded outcome of this test.
Response: -1

Request: Record request — test call for COc1cc(C2c3cc4c(cc3C(OC3OC5COC(C)OC5C(O)C3O)C3COC(=O)C23)OCO4)cc(OC)c1O (stereo unspecified) + Nc1ccc(C#CCN(C(=O)Cc2ncc(C(F)(F)F)cc2C(F)(F)F)c2ccc(F)cc2)nn1
Response: -1

Request: I'd appreciate the recorded outcome for CCc1cc2c(N3CCc4c(cc(Cn5ccnc5)cc4-c4cn(C)nc4C(F)(F)F)C3=O)ccnc2c(OC)n1 + Nc1ccc(C#CCN(C(=O)Cc2ncc(C(F)(F)F)cc2C(F)(F)F)c2ccc(F)cc2)nn1 from this test.
Response: -1

Request: Answer briefly: the call reported for CC(C)n1c(=O)n(C)c2cnc3cc(F)c(-c4ccc(OCCCN5CCCCC5)nc4)cc3c21 + Cc1cccc(N(C)C(=O)C2C(O)CCN2c2nc(C)cc(C(F)(F)F)c2C#N)c1 in this assay.
Response: -1

Request: Recorded test call requested for O=C(Nc1ccc(O)c(NS(=O)(=O)c2ccc(F)cc2)c1)c1ccc(-c2ccccc2)cc1 + COC1C(OC(N)=O)C(O)C(Oc2ccc3c(O)c(NC(=O)c4ccc(O)c(CC=C(C)C)c4)c(=O)oc3c2C)OC1(C)C
Response: -1

Request: Give the logged outcome of this assay for the following compound: COc1cccc2c1C(=O)c1c(O)c3c(c(O)c1C2=O)CC(O)(C(=O)CO)CC3OC1CC(N)C(O)C(C)O1 (stereo unspecified) + Cc1cccc(N(C)C(=O)C2C(O)CCN2c2nc(C)cc(C(F)(F)F)c2C#N)c1
Response: 1
